B1: TPR t1 (parent)
chain: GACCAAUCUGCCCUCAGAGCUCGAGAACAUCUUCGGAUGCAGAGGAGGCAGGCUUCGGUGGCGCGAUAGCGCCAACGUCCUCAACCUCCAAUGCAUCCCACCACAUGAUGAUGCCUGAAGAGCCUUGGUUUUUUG

Variants of: B1
Assay: polymerase ribozyme fitness, log enrichment relative to wild type (log ratio); higher = more active; in vitro selection for triplet polymerase activity
assay endpoint: polymerase ribozyme fitness (log ratio)
Output spec: single numeric token, no unit.

Would you please look over these solved cases?
| sequence | polymerase ribozyme fitness (log ratio) |
| --- | --- |
| GACCAAUCUGCCCUCAGAGCUCGAGAACAUCUUCGGAUGCAGAGGAGGCAGACUUCGGUGGCGCGAUAGCGCCAACGUCCUCAACCUCCAAUGCAUCCCACCACAUGAUGAUGCUUGAAGAGCCUUGGUUUUUUG [G52A C115U] | -2 |
| GACCAAUCUGCACUCAGAGCUCGAGAACAUCUUCGGAUGCAGAGGAGGCAGGCUUCAGUGGCGCGAUAGCGCCAACGUCCUCAACCUCCAAUGCAUCCCACCACAUGAUGAUGCCUGAAGAGCCUUGGUUUUUUG [C12A G57A] | -1.19 |
| GACCAAUCUGCACUCAGAGCUCGAGAACAUCUUCGGAUGCAGAGGAGCCAGGCCUCGGUGGCGCGAUAGCGCCAACGUCCUCCACCUACAAUGCAUCCCACCACAUGAUGAUGCCUGAAGAGCCUUGGUUUUUUG [C12A G48C U54C A83C C88A] | -2.86 |

Query (variant): GAGCAAUCAGCCCUCAGAGCUCGAGAACAUCUUCGGAUGCAGAGGAGGCAGGCUUCGGUGGCGCGAUAGCUCCAACGUCCUCAACCUCCAAUGCAUCCCACCACAUGAUCAUGCCUGAAGAGCCUUGGUUUUUUG [C3G U9A G71U G110C] ; field requested: polymerase ribozyme fitness (log ratio)
-5.18

Query (variant): GACCAAUCUGCCCUCAGUGCUCGAGAACAUCUUCGGAUGCAGAGGAGGCAGGCUUCGGUGACGCGAUAGUGCCAACGUCCUCAACCUCCAAUGCAUCCCACCACAUGAUGAUGCAUGAAGAGCCUUGGUUUUUUG [A18U G61A C70U C115A] ; field requested: polymerase ribozyme fitness (log ratio)
-5.05

Query (variant): GACCAAUCUGCCAUCAGAGCUCGAGAACAUCUUCGGAUGCAGAGGAGGCAGGCUUCGGUGGCGCGAUAGAGCCAACGUCCUCAACCUCCAAUGCAUCCCACCACAUGAUGAUGCCUGAAGAGCCUUGGUUUUUUG [C13A C70A] ; field requested: polymerase ribozyme fitness (log ratio)
-3.18
